Value source: patent US10208066B2

Field: IC50. Provide a value for each of the compounds that follow.
target: PI3K-γ (p110γ) (Homo sapiens (Human))
Sequence (P48736 whole entry, species assumed): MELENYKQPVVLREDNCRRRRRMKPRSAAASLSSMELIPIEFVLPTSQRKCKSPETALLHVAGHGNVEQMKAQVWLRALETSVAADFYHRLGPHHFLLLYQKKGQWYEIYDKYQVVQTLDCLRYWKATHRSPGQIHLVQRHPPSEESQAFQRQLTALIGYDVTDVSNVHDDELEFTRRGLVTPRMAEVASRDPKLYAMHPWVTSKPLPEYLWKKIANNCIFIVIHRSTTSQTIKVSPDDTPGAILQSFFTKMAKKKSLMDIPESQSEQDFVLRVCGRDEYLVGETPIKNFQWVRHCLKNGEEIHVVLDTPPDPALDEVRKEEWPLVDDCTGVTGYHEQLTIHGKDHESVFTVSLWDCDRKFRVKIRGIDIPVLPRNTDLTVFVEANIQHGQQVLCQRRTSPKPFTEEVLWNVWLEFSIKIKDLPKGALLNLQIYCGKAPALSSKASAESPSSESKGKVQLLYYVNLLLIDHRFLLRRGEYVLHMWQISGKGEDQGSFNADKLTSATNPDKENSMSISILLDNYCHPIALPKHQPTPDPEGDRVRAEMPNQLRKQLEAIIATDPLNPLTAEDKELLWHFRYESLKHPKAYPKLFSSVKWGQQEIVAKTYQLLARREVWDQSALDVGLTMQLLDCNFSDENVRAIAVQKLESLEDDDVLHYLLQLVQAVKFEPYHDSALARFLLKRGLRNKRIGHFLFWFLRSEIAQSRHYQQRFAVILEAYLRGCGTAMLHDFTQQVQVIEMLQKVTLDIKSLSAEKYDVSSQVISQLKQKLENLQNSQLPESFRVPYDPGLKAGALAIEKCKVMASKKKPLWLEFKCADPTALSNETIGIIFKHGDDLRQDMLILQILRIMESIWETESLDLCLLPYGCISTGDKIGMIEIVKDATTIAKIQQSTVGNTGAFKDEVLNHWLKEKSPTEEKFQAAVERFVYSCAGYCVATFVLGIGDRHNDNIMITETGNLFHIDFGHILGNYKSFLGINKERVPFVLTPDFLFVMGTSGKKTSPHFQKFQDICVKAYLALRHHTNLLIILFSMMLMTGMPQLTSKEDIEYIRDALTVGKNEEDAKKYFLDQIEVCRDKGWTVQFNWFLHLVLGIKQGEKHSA
Numbers only, in nM.

Past entries and their recorded results:
>>> test_result("C[C@H](Nc1ncnc(N)c1C#N)c1cc2ncc(Cl)n2nc1-c1cc(F)cc(Cl)c1")
1120
>>> test_result("C[C@H](Nc1ncnc(N)c1C#N)c1cc2ncc(Cl)n2nc1-c1ccc(O)cc1")
146
>>> test_result("Cc1nc(N)c(C#N)c(N[C@@H](C)c2cc3ncc(Cl)n3nc2-c2ccccc2)n1")
243
>>> test_result("CCC(Nc1ncnc2[nH]cnc12)c1cc2ncc(Cl)n2nc1-c1ccccc1 (centres unmarked)")
617
>>> test_result("Cc1cc(F)cc(-c2nn3c(Cl)cnc3cc2[C@H](C)Nc2ncnc(N)c2C#N)c1")
1140

Here are 3 compounds. What values of IC50 were reported for them?
1. C[C@H](Nc1ncnc(N)c1-c1nn[nH]n1)c1cc2ncc(Cl)n2nc1-c1ccccc1
2. C[C@H](Nc1ncnc(N)c1C#N)c1cc2ncc(Cl)n2nc1-c1ccccc1C(F)(F)F
3. C[C@H](Nc1ncnc(N)c1C#N)c1cc2ncc(Cl)n2nc1-c1ccccc1S(C)(=O)=O

A:
[424, 195, 345]

----------
target: PI3K-β (Homo sapiens, UniProt P42338)
Sequence (P42338 whole entry, looked up): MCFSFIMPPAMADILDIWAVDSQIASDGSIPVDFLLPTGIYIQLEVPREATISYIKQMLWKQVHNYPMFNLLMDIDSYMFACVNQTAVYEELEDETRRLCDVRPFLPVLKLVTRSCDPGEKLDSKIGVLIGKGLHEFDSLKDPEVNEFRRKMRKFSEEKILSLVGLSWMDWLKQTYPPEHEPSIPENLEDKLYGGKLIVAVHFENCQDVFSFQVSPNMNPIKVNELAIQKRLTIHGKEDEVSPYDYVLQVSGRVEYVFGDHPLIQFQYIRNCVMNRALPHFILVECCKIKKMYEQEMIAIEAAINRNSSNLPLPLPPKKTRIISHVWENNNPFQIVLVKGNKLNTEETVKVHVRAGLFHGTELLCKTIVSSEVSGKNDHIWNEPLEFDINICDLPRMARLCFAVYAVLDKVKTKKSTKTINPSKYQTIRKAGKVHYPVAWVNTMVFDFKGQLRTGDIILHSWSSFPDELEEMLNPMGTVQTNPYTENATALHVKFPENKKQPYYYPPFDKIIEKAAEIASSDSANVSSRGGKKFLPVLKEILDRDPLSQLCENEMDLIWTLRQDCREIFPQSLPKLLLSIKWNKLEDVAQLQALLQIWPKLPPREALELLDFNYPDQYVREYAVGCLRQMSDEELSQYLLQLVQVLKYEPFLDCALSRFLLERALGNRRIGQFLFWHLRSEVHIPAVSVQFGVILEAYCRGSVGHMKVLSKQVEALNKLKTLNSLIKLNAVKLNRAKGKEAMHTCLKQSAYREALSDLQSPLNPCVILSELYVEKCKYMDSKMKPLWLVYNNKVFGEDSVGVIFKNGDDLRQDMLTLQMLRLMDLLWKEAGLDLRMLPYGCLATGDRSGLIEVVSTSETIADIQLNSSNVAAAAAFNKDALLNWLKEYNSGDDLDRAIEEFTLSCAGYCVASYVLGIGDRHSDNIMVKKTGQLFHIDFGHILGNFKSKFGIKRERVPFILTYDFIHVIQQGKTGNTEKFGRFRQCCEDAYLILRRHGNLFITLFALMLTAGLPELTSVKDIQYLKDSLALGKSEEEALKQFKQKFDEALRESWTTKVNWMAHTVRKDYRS
pIC50: −log10 of the molar value.
pIC50 vs 6: at or above is label 1, below is label 0.

>>> cat("C[C@H](Nc1ncnc(N)c1C#N)c1cc2ncc(Cl)n2nc1-c1cc(F)cc(Cl)c1")
"label 0"

Q: Assess whether reported pIC50 for C[C@H](Nc1ncnc(N)c1C#N)c1cc2ncc(Cl)n2nc1-c1ccccc1F sits at 6 or higher.
A: label 1

Q: Would you say CC(Nc1ncnc2[nH]cc(C#N)c12)c1cc2ncc(Cl)n2nc1-c1ccccc1 (single isomer, unassigned) shows pIC50 at minimum 6?
A: label 1

Q: Item Cc1ccccc1-c1nn2c(Cl)cnc2cc1[C@H](C)Nc1ncnc(N)c1C#N with pIC50 of 6 or above?
A: label 1

Q: Please tell me: is the molecule C[C@H](Nc1ncnc(N)c1C#N)c1cc2ncc(Cl)n2nc1-c1cnn(C)c1 at or over 6 in terms of pIC50?
A: label 1

----------
target: PI3K-β (Homo sapiens); experiment: Transcreener KINASE Assay, fluorescent determination of PI3K enzyme activity; type: biochemical; conditions: at 1 μM; read-out: PI3K-β IH % (inhibition rate)
READOUT_KIND: inhibition at 1 µM
State the value, then name its unit.

>>> test_result("C[C@H](Nc1ncnc(N)c1C#N)c1cc2ncc(Cl)n2nc1-c1ccc(Cl)c(F)c1")
"44.1%"
>>> test_result("CCC(Nc1ncnc(N)c1C#N)c1cc2ncc(Cl)n2nc1-c1cccc(F)c1 (stereo not shown)")
"46.6%"
>>> test_result("C[C@H](Nc1ncnc(N)c1C#N)c1cc2ncc(Cl)n2nc1-c1ccc2scnc2c1")
"49.4%"

Now let's try a different one.
Q: Input C[C@@H](c1cc2ncc(Cl)n2nc1-c1ccccc1)n1ccc2c(N)ncnc21 , output reported inhibition at 1 µM.
A: 9.5%

----------
molecular target: PI3K-β (Homo sapiens); test: Transcreener KINASE Assay, fluorescent determination of PI3K enzyme activity; assay type: biochemical; details: at 1 μM;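 for PI3K-β IH % (inhibition rate): recombinant PI3K enzyme reaction, 80 min at room temperature, ADP formed detected by far-red competitive fluorescence polarization immunoassay, inhibition relative to ADP in 2% DMSO control wells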
Please note: rule met applies when PI3K-β IH % (inhibition rate) is 20% or greater, and rule not met applies otherwise.

Take a look at these entries with their results.
>>> cat("CCC(Nc1ncnc2[nH]cnc12)c1cc2ncc(Cl)n2nc1-c1ccccc1F (single isomer, unassigned) [Compound 26]")
"rule not met"
>>> cat("CCC(Nc1ncnc2[nH]cnc12)c1cc2ncc(Cl)n2nc1-c1ccccc1F (single isomer, unassigned) [Compound 25]")
"rule met"
>>> cat("C[C@H](Nc1ncnc(N)c1C#N)c1cc2ncc(Cl)n2nc1-c1cccc(C(C)(C)O)c1 (single isomer, unassigned)")
"rule met"

Q: Tell me whether PI3K-β IH % (inhibition rate) is at least 20% here: CCC(Nc1ncnc2[nH]cnc12)c1cc2ncc(Cl)n2nc1-c1ccccc1 (centres unmarked) [Compound 14]
A: rule not met

Q: Could you please find out whether CCC(Nc1ncnc2[nH]cnc12)c1cc2ncc(Cl)n2nc1-c1ccccc1 (centres unmarked) [Compound 18] has PI3K-β IH % (inhibition rate) that meets 20% or exceeds it?
A: rule met
